- experimental target: B1R receptor of the rat (Rattus norvegicus)
- Construct: host or cells: CHO K1 cells (Chinese hamster ovary), stably transfected
- Sequence (P97583 whole entry): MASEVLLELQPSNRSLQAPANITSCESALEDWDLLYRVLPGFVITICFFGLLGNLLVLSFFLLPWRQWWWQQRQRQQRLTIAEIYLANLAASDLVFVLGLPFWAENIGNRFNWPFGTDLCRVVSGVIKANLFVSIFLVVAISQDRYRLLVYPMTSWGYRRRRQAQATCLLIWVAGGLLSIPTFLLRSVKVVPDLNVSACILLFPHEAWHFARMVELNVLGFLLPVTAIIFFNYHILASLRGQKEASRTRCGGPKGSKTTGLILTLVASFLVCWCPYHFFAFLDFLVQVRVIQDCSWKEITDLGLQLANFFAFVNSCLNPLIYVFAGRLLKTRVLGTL
- assay method text: Functional study on the bradykinin receptor 1 (B1R), FLIPR Ca2+ assay, rB1R cells
- Format: cell-based
- condition summary: CHO-K1, test substance 10 μM, agonist Des-Arg9-bradykinin 100 nM, % inhibition compared with the maximum achievable inhibition, read-out: B1R Antagonism, rat [10 μM] % Inhibition
measurement name: inhibition at 10 µM (%)
Give just the numeric value; % need not be written.

COc1cc(C)c(S(=O)(=O)N2CCCC2COCC(=O)NCc2ccc(CN(C)C)cc2)c(C)c1 (stereo not drawn); 99
O=C(COCC1CCCN1S(=O)(=O)c1ccc(Cl)c(Cl)c1)N1CCN(Cc2ccc3c(c2)OCO3)CC1 (stereo not drawn); 0
CN(C)c1ccc(C2CCCN2C(=O)COCC2CCCCN2S(=O)(=O)c2c(Cl)cccc2Cl)cc1 (stereo not drawn); 102
COc1cc(C)c(S(=O)(=O)N2CCCCC2COCC(=O)N2CCN(C(C)C)CC2)c(C)c1 (stereo not drawn); 93
COc1cc(C)c(S(=O)(=O)N2CCCC2COCC(=O)N2CCN(c3ncccc3C#N)CC2)c(C)c1 (stereo not drawn); 98.7
COc1cc(C)c(S(=O)(=O)N2CCCCC2COCC(=O)NCCC2CCN(c3ccncc3)CC2)c(C)c1 (stereo not drawn); 99.3
COc1cc(C)c(S(=O)(=O)N2CCCCC2COCC(=O)N2CCN(Cc3c(C)cc(C)cc3C)CC2)c(C)c1 (stereo not drawn); 102
CC(C)N(CCN1CCN(C(=O)COCC2CCCCN2S(=O)(=O)c2c(Cl)cc(Cl)cc2Cl)CC1)C(C)C (stereo not drawn); 97.8
COc1ccc(S(=O)(=O)N2Cc3ccccc3C[C@H]2COCC(=O)N2CCC(CCN3CCCC3)CC2)cc1; 99.7
O=C(COCC1CCCN1S(=O)(=O)c1c(Cl)cccc1Cl)N1CCN(Cc2ccc(Cl)c(Cl)c2)CC1 (stereo not drawn); 104

INPUT: Fill in inhibition at 10 µM for COc1cc(C)c(S(=O)(=O)N2CCCCC2COCC(=O)N2CCN(Cc3cnc(N(C)C)nc3)CC2)c(C)c1 (stereo not drawn) tested with B1R receptor of the rat (Rattus norvegicus).
OUTPUT: 101

INPUT: Fill in inhibition at 10 µM for COc1cc(C)c(S(=O)(=O)N2CCCC2COCC(=O)N2CCN(Cc3ccccc3F)CC2)c(C)c1 (stereo not drawn) tested with B1R receptor of the rat (Rattus norvegicus).
OUTPUT: 98.6

INPUT: Fill in inhibition at 10 µM for Cc1nn(C)c(Cl)c1S(=O)(=O)N1CCCCC1COCC(=O)N1CCN(C2CCN(C)CC2)CC1 (stereo not drawn) tested with B1R receptor of the rat (Rattus norvegicus).
OUTPUT: 94.5

INPUT: Fill in inhibition at 10 µM for Cc1cc(Br)cc(C)c1S(=O)(=O)N1CCCCC1COCC(=O)N1CCC(CCN2CCCC2)CC1 (stereo not drawn) tested with B1R receptor of the rat (Rattus norvegicus).
OUTPUT: 100

INPUT: Fill in inhibition at 10 µM for Cc1cc(C)nc(CC2CCCN2C(=O)COCC2CCCCN2S(=O)(=O)c2c(Cl)cccc2Cl)c1 (stereo not drawn) tested with B1R receptor of the rat (Rattus norvegicus).
OUTPUT: 99.7

INPUT: Fill in inhibition at 10 µM for COc1cc(C)c(S(=O)(=O)N2CCCCC2COCC(=O)NCCc2c[nH]c3ccccc23)c(C)c1 (stereo not drawn) tested with B1R receptor of the rat (Rattus norvegicus).
OUTPUT: 80.6

INPUT: Fill in inhibition at 10 µM for O=C(COCC1CCCCN1S(=O)(=O)c1c(Cl)cc(Cl)cc1Cl)N1CCC(c2ccncc2)C1 (stereo not drawn) tested with B1R receptor of the rat (Rattus norvegicus).
OUTPUT: 99.8
